Reference source: PubChem BioAssay (NCI)

System: NCI-H23 lung
Assay: NCI tumour cell line growth inhibition, 48 h

| compound | TGI |
| --- | --- |
| C/C(CC(=O)Nc1cccc(Cl)c1C)=N\NC(=O)c1ccncc1 | > 100 µM |
| COc1ccc(C2OC(N)=C(C#N)C3=C2CCCC3C)cc1OC (centres undefined) | > 100 µM |
| S=c1[nH]c(=S)c2nnn(-c3ccccc3)c2[nH]1 | > 100 µM |
| CC(C)(S)C(N)C(=O)O (centres undefined) | > 5000 µM |

----------
Collected TGI values appear next to each entry.
Test system: OVCAR-4 ovarian
Test: NCI tumour cell line growth inhibition, 48 h
test-readout: TGI

| molecule | system-tested | result |
| --- | --- | --- |
| COc1cc(C(=O)N2CCN(c3ncccn3)CC2)c(N)cc1OCc1ccccc1 | OVCAR-4 ovarian | > 100 µM |
| O=[N+]([O-])/C(C(Cl)=C(Cl)Cl)=C(/Nc1ccccc1)SCc1ccccc1 | OVCAR-4 ovarian | 66.8 µM |
| CCCOc1ccc2sc(NC(=O)OC)nc2c1 | OVCAR-4 ovarian | > 100 µM |
| CC(C)(C)OC(=O)NC(Cc1ccc(OC(C)(C)C)cc1)C(=O)N[C@H]1CCC[C@H]1C(=O)NC(Cc1ccccc1)C(=O)N1CCCC1C(N)=O (some centres not stated) | OVCAR-4 ovarian | > 100 µM |
| Cn1c(=O)oc2cc(C(O)CN3CCN(Cc4ccccn4)CC3)c(Cl)cc21 (configuration not stated) | OVCAR-4 ovarian | > 100 µM |
| O=C(O)CC(NC(=O)CP(=O)(O)O)C(=O)O (configuration not stated) | OVCAR-4 ovarian | > 10000 µM |
| COc1ccc(-c2nc(-c3cc4c(ccc5ccccc54)oc3=O)cs2)cc1 | OVCAR-4 ovarian | > 100 µM |
| CC(C)N(CCn1c2c3ccccc3ccc2c2oc(=O)c3ccccc3c21)C(C)C | OVCAR-4 ovarian | > 100 µM |
| CCCCCCOc1ccc(Nc2c(O)c3c(c(O)c2Cl)C(=O)C=CC3=O)cc1 | OVCAR-4 ovarian | > 8.13 µM |
| CC1CC[C@@]2(OC1)OC1C[C@H]3[C@@H]4CC[C@H]5CC(OC6OC(CO)C(O)C(OC7OC(CO)C(OC8OC(CO)C(O)C(OC9OC(CO)C(O)C(O)C9O)C8OC8OC(CO)C(O)C(O)C8O)C(O)C7O)C6O)[C@H](O)CC5(C)[C@H]4CCC3(C)C1[C@@H]2C (some centres not stated) | OVCAR-4 ovarian | 9.55 µM |
| N#Cc1[nH]c(=S)[nH]c1N | OVCAR-4 ovarian | > 100 µM |
| COC(=O)C1(C(=O)OC)C/C(C)=C(/C)SCCCS1 | OVCAR-4 ovarian | > 100 µM |
| [N-]=[N+]=Nc1cc(=O)n2c3c(cccc13)CCC2 | OVCAR-4 ovarian | > 100 µM |
| COC1(OC)CC2C(=O)N(Cc3ccccc3)C1C=C2S(=O)(=O)c1ccccc1 (configuration not stated) | OVCAR-4 ovarian | 53.5 µM |
| CC1(C)CC(=O)C(C=NC(=O)c2ccncc2)=C(O)C1 | OVCAR-4 ovarian | > 100 µM |
| COc1ccc(CC2c3cc(OC)c(OC)cc3CC[N+]2(C)C)cc1OC (configuration not stated) | OVCAR-4 ovarian | > 100 µM |
| O=C1NC(=O)/C(=C\c2ccccc2)C2=C1CCCC2 | OVCAR-4 ovarian | 29.2 µM |
| Cc1nc([N+](=O)[O-])cn1CC(=N)N | OVCAR-4 ovarian | > 100 µM |
| Nc1nc(NCC2(CO)CC2)cc(=O)[nH]1 | OVCAR-4 ovarian | > 100 µM |
| O[C@H](c1cc(C(F)(F)F)nc2c(C(F)(F)F)cccc12)[C@@H]1CCCCN1 | OVCAR-4 ovarian | 15 µM |
| O=C(CCc1cc(O)ccc1O)OCCc1ccccc1 | OVCAR-4 ovarian | 32.5 µM |
| Cc1ccc(S(=O)(=O)c2ccc(N)cc2)cc1 | OVCAR-4 ovarian | > 100 µM |
| O=C(/C=C/c1ccc(OCc2cccc(Cl)c2)cc1)NO | OVCAR-4 ovarian | 38 µM |
| CC(=O)N(CCc1ccccc1)C(C#N)c1ccccc1 (configuration not stated) | OVCAR-4 ovarian | > 100 µM |
| COc1ccc(OC)c(C(Cc2ccnc3ccccc23)Cc2ccnc3ccccc23)c1 | OVCAR-4 ovarian | > 10 µM |
| COc1cc2c(c(OC)c1OC)-c1ncc3cc4c(cc3c1C2)OCO4 | OVCAR-4 ovarian | > 100 µM |
| N#CC1=C(N)Oc2cc(O)ccc2C1c1cccc2ccccc12 (configuration not stated) | OVCAR-4 ovarian | 31.5 µM |
